- assay.explanation: Inhibition of Influenza A virus (A/goose/Guangdong/SH7/2013(H5N1)) neuraminidase using 4-MU-NANA as substrate preincubated for 5 mins followed by substrate addition and measured after 30 to 60 mins by fluorescence assay
- Design: species or system H5N1 subtype
property.measured: IC50

Known IC50 results, listed for orientation:
# structure.as.smiles, IC50
data = [
    ("CCC(CC)O[C@@H]1C=C(C(=O)O)C[C@H](NCc2ccc(Oc3ccccc3F)cc2)[C@H]1NC(C)=O", "260 nM"),
    ("CCC(CC)O[C@@H]1C=C(C(=O)O)C[C@H](NCc2ccc(OCc3ccccc3C)cc2)[C@H]1NC(C)=O", "1880 nM"),
]

Reported IC50 for CCC(CC)O[C@@H]1C=C(C(=O)O)C[C@H](NCc2ccc(Oc3ccc(C)cc3)cc2)[C@H]1NC(C)=O was 3360 nM

Sure, the documented IC50 for CCC(CC)O[C@@H]1C=C(C(=O)O)C[C@H](NCc2ccc(Oc3cccc(OC)c3)cc2)[C@H]1NC(C)=O is 460 nM

Form: compound = CCC(CC)O[C@@H]1C=C(C(=O)O)C[C@H](NCc2ccc(SCc3ccc(F)cc3)cc2)[C@H]1NC(C)=O ; IC50 = 900 nM

Please fill in: IC50 reported for CCC(CC)O[C@@H]1C=C(C(=O)O)C[C@H](NCc2ccc(Oc3ccccc3OC)cc2)[C@H]1NC(C)=O = 920 nM

// field: IC50; key: CCC(CC)O[C@@H]1C=C(C(=O)O)C[C@H](NCc2ccc(OCc3ccc(SC)cc3)cc2)[C@H]1NC(C)=O ; value = 980 nM

---

- Test system: Influenza A virus
- assay.explanation: microbe, parasite or virus in culture
- condition.notes: A/Puerto Rico/8/1934(H1N1), MDCK
property.measured: EC50 (nM)
Dear colleague, please return just the value in nM, with no unit written.

# compound, tested.target, measured.number
records = [
    ("CCC(CC)O[C@@H]1C=C(C(=O)O)C[C@H](N)[C@H]1NC(C)=O [OSELTAMIVIR CARBOXYLATE]", "Influenza A virus", 56),
]

Now look at this entry.
Measured EC50 of CC(=O)N[C@H]1[C@H]([C@H](O)[C@H](O)CO)OC(C(=O)O)=C[C@@H]1NC(=N)N : 9

---

Reported log10 of IC50 values are given for each entry in this list.
- assay.explanation: Inhibition of Influenza A virus (A/California/04/2009(H1N1)) neuraminidase using 4-MU-NANA as substrate preincubated for 5 mins followed by substrate addition and measured after 30 to 60 mins by fluorescence assay
// stored as log10 of IC50 expressed in µM

# compound, log10 of IC50
data = [
    ("CCC(CC)O[C@@H]1C=C(C(=O)O)C[C@H](NCc2ccc(NCc3ccc(F)cc3)cc2)[C@H]1NC(C)=O", 0.03),
    ("CCC(CC)O[C@@H]1C=C(C(=O)O)C[C@H](NCc2ccc(O[C@@H](C)c3ccccc3)cc2)[C@H]1NC(C)=O", 1.37),
    ("CCC(CC)O[C@@H]1C=C(C(=O)O)C[C@H](NCc2ccc(OCc3ccc(F)cc3)cc2)[C@H]1NC(C)=O", -0.19),
    ("CCC(CC)O[C@@H]1C=C(C(=O)O)C[C@H](NCc2ccc(Oc3cccc(OC)c3)cc2)[C@H]1NC(C)=O", 0.29),
    ("CCC(CC)O[C@@H]1C=C(C(=O)O)C[C@H](NCc2ccc(OCc3ccccc3C#N)cc2)[C@H]1NC(C)=O", 1.33),
    ("CCC(CC)O[C@@H]1C=C(C(=O)O)C[C@H](N)[C@H]1NC(C)=O [OSELTAMIVIR CARBOXYLATE]", -1.54),
    ("CCC(CC)O[C@@H]1C=C(C(=O)O)C[C@H](NCc2ccc(Oc3ccccc3F)cc2)[C@H]1NC(C)=O", -0.26),
    ("CCC(CC)O[C@@H]1C=C(C(=O)O)C[C@H](NCc2ccc(OCc3ccccc3OC)cc2)[C@H]1NC(C)=O", 1.13),
]

What the record says about CC(=O)N[C@H]1[C@H]([C@H](O)[C@H](O)CO)OC(C(=O)O)=C[C@@H]1NC(=N)N : log10 of IC50 is -1.60

The value of log10 of IC50 measured for the compound CCC(CC)O[C@@H]1C=C(C(=O)O)C[C@H](NCc2ccc(C#Cc3ccccc3)cc2)[C@H]1NC(C)=O turned out to be 1.44

Entry CCC(CC)O[C@@H]1C=C(C(=O)O)C[C@H](NCc2ccc(OCc3cccc(C#N)c3)cc2)[C@H]1NC(C)=O ; log10 of IC50 = 0.41

The reported log10 of IC50 of the compound CCC(CC)O[C@@H]1C=C(C(=O)O)C[C@H](NCc2ccc(Oc3cccc(C)c3)cc2)[C@H]1NC(C)=O was 0.23
